Test system: shunt pathway
measurement.notes: Test, Code 036 (C-Shunt inhibitor): lysis of human erythrocytes in autologous serum via shunt pathway activated by cobra venom factor
Assay type: cell-based
recorded.conditions: activity in wells, twofold serial dilution; higher well number indicates higher activity
measurement.label: Shunt Inhibition 036* Wells

O=C(Nc1ccc(C(=O)Nc2ccc(S(=O)(=O)[O-])c3ccc(S(=O)(=O)[O-])cc23)c(S(=O)(=O)[O-])c1)Nc1ccc(C(=O)Nc2ccc(S(=O)(=O)[O-])c3ccc(S(=O)(=O)[O-])cc23)c(S(=O)(=O)[O-])c1.[Na+].[Na+].[Na+].[Na+].[Na+].[Na+] | N
O=C(Nc1ccc(C(=O)Nc2ccc(S(=O)(=O)[O-])c3cccc(S(=O)(=O)O)c23)c(S(=O)(=O)[O-])c1)Nc1ccc(C(=O)Nc2ccc(S(=O)(=O)O)c3cccc(S(=O)(=O)O)c23)c(S(=O)(=O)[O-])c1.[Na+].[Na+].[Na+] | +1 Wells
O=C(Nc1cc(C(=O)O)cc(C(=O)Nc2ccc(S(=O)(=O)O)c3cc(S(=O)(=O)O)cc(S(=O)(=O)O)c23)c1)Nc1cc(C(=O)O)cc(C(=O)Nc2ccc(S(=O)(=O)O)c3cc(S(=O)(=O)O)cc(S(=O)(=O)O)c23)c1 | +2 Wells
O=C(Nc1ccc(C(=O)Nc2cc(S(=O)(=O)[O-])cc3ccc(S(=O)(=O)[O-])cc23)c(S(=O)(=O)[O-])c1)Nc1ccc(C(=O)Nc2cc(S(=O)(=O)[O-])cc3ccc(S(=O)(=O)[O-])cc23)c(S(=O)(=O)[O-])c1.[Na+].[Na+].[Na+].[Na+].[Na+].[Na+] | N

// next item, Shunt Inhibition 036* Wells requested
Lab note: `O=C(Nc1ccc(S(=O)(=O)[O-])c(C(=O)Nc2cc(S(=O)(=O)[O-])cc3cc(S(=O)(=O)[O-])cc(S(=O)(=O)[O-])c23)c1)Nc1ccc(S(=O)(=O)[O-])c(C(=O)Nc2cc(S(=O)(=O)[O-])cc3cc(S(=O)(=O)[O-])cc(S(=O)(=O)[O-])c23)c1.[Na+].[Na+].[Na+].[Na+].[Na+].[Na+].[Na+].[Na+]` gave Shunt Inhibition 036* Wells of +1 Wells
